Each entry below carries its recorded viability, T/C.
- Tested on: LG0567-F671-PDC KRAS tumor spheroid viability
- experimentNotes: Anticancer human tumor LG0567-F671-PDC patient-derived lung adenocarcinoma cell line growth inhibition [KRAS2]
- experimentalConditions: second compound 1 µM; first compound 0.1 µM; stronger effect = lower value; spheroids with HUVEC and MSC
Write the value in % as a bare number.

Recorded viability, T/C (molecule COc1cc(Nc2ncc3c(n2)-c2ccc(Cl)cc2C(c2c(F)cccc2OC)=NC3)ccc1C(=O)O + CC1OCC2(CCN(c3cnc(Sc4ccnc(N)c4Cl)c(N)n3)CC2)C1N ): 19.2

Measured viability, T/C of Cn1ncnc1[C@H]1c2n[nH]c(=O)c3cc(F)cc(c23)N[C@@H]1c1ccc(F)cc1 + COc1cc2nc(C)nc(NC(C)c3cc(N)cc(C(F)(F)F)c3)c2cc1OC1CCOC1 : 53.8

The value of viability, T/C measured for the molecule CCNC(=O)CC1N=C(c2ccc(Cl)cc2)c2cc(OC)ccc2-n2c(C)nnc21 (stereo not given) + C=CC(=O)N1CCN(c2nc(OCC3CCCN3C)nc3c2CCN(c2cccc4cccc(C)c24)C3)CC1CC#N turned out to be 32.3

Entry CCNC(=O)CC1N=C(c2ccc(Cl)cc2)c2cc(OC)ccc2-n2c(C)nnc21 (stereo not given) + CNCc1ccccc1-c1csc(C(C)Nc2nc(C)nc3cc(OC)c(OC)cc23)c1 , viability, T/C reported as 67.6

Measured viability, T/C, COc1cc2nccc(Oc3ccc(NC(=O)C4(C(=O)Nc5ccc(F)cc5)CC4)cc3)c2cc1OC + C=CC(=O)N1CCN(c2nc(OCC3CCCN3C)nc3c2CCN(c2cccc4cccc(C)c24)C3)CC1CC#N : 27.6

###

- System: LG0567-F671-PDC KRAS tumor spheroid viability
- experimentNotes: Anticancer human tumor LG0567-F671-PDC cell line growth inhibition [KRAS2];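 note: drug exposure lasted seven days after spheroids formed for three days; 100% = DMSO vehicle control viability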
- experimentalConditions: second compound 0.1 µM; first compound 3.16 µM; stronger effect = lower value; spheroids with HUVEC and MSC
assayReadout: viability, T/C (%)
Expressed in %, but write only the number.

Answered cases to consult:
compound | obsValue
CC(=O)OC12COC1CC(O)C1(C)C(=O)C(O)C3=C(C)C(OC(=O)C(O)C(NC(=O)OC(C)(C)C)c4ccccc4)CC(O)(C(OC(=O)c4ccccc4)C21)C3(C)C (centres undefined) + COc1cc2nc(C)nc(NC(C)c3cc(N)cc(C(F)(F)F)c3)c2cc1OC1CCOC1 | 58.7
COC(=O)c1ccc2c(C(=Nc3ccc(N(C)C(=O)CN4CCN(C)CC4)cc3)c3ccccc3)c(O)[nH]c2c1 + COc1cc2nc(C)nc(NC(C)c3cc(N)cc(C(F)(F)F)c3)c2cc1OC1CCOC1 | 83.8

Form field, viability, T/C with LG0567-F671-PDC KRAS tumor spheroid viability, item CC1OCC2(CCN(c3cnc(Sc4ccnc(N)c4Cl)c(N)n3)CC2)C1N (centres undefined) + C=CC(=O)N1CCN(c2nc(=O)n(-c3c(C)ccnc3C(C)C)c3nc(-c4c(O)cccc4F)c(F)cc23)C(C)C1 : 3.47

The value of viability, T/C recorded for CC1(C)CCC(CN2CCN(c3ccc(C(=O)NS(=O)(=O)c4ccc(NCC5CCOCC5)c([N+](=O)[O-])c4)c(Oc4cnc5[nH]ccc5c4)c3)CC2)=C(c2ccc(Cl)cc2)C1 + COc1cc2nc(C)nc(NC(C)c3cc(N)cc(C(F)(F)F)c3)c2cc1OC1CCOC1 when tested on LG0567-F671-PDC KRAS tumor spheroid viability reads 18.8

Entry COc1cc(Nc2ncc3c(n2)-c2ccc(Cl)cc2C(c2c(F)cccc2OC)=NC3)ccc1C(=O)O + COc1cc2nc(C)nc(NC(C)c3cc(N)cc(C(F)(F)F)c3)c2cc1OC1CCOC1 , tested on LG0567-F671-PDC KRAS tumor spheroid viability, has a reported viability, T/C of 48.9

Note to self: viability, T/C of CC(=O)OC12COC1CC(O)C1(C)C(=O)C(O)C3=C(C)C(OC(=O)C(O)C(NC(=O)OC(C)(C)C)c4ccccc4)CC(O)(C(OC(=O)c4ccccc4)C21)C3(C)C (centres undefined) + CNCc1ccccc1-c1csc(C(C)Nc2nc(C)nc3cc(OC)c(OC)cc23)c1 with LG0567-F671-PDC KRAS tumor spheroid viability was 53.6

Record for CC1(C)CCC(CN2CCN(c3ccc(C(=O)NS(=O)(=O)c4ccc(NCC5CCOCC5)c([N+](=O)[O-])c4)c(Oc4cnc5[nH]ccc5c4)c3)CC2)=C(c2ccc(Cl)cc2)C1 + CC1OCC2(CCN(c3cnc(Sc4ccnc(N)c4Cl)c(N)n3)CC2)C1N under target or system LG0567-F671-PDC KRAS tumor spheroid viability: viability, T/C reported as 15.4

// viability, T/C (LG0567-F671-PDC KRAS tumor spheroid viability) for CC(C)NCC(C(=O)N1CCN(c2ncnc3c2C(C)CC3O)CC1)c1ccc(Cl)cc1 (centres undefined) + C=CC(=O)N1CCN(c2nc(OCC3CCCN3C)nc3c2CCN(c2cccc4cccc(C)c24)C3)CC1CC#N = 17

Value sought: viability, T/C, system LG0567-F671-PDC KRAS tumor spheroid viability, item O=C(c1cc(Cc2n[nH]c(=O)c3ccccc23)ccc1F)N1CCN(C(=O)C2CC2)CC1 + C=CC(=O)N1CCN(c2nc(OCC3CCCN3C)nc3c2CCN(c2cccc4cccc(C)c24)C3)CC1CC#N . Result: 27.9
